molecules and their reported IC50
biological target: human AR (Homo sapiens); assay: Co-transfection assay, AR antagonist activity in presence of DHT, CV-1 cells; type: cell-based; design: expressed in transfected cells; host or cells: CV-1 cells (African green monkey kidney fibroblasts), transient transfection with pRShAR; settings: AR Antagonist CV-1 Cells Potency (nM), CV-1 cells; antagonist potency or IC50, DHT at its EC50 concentration
Sequence (P10275 whole entry): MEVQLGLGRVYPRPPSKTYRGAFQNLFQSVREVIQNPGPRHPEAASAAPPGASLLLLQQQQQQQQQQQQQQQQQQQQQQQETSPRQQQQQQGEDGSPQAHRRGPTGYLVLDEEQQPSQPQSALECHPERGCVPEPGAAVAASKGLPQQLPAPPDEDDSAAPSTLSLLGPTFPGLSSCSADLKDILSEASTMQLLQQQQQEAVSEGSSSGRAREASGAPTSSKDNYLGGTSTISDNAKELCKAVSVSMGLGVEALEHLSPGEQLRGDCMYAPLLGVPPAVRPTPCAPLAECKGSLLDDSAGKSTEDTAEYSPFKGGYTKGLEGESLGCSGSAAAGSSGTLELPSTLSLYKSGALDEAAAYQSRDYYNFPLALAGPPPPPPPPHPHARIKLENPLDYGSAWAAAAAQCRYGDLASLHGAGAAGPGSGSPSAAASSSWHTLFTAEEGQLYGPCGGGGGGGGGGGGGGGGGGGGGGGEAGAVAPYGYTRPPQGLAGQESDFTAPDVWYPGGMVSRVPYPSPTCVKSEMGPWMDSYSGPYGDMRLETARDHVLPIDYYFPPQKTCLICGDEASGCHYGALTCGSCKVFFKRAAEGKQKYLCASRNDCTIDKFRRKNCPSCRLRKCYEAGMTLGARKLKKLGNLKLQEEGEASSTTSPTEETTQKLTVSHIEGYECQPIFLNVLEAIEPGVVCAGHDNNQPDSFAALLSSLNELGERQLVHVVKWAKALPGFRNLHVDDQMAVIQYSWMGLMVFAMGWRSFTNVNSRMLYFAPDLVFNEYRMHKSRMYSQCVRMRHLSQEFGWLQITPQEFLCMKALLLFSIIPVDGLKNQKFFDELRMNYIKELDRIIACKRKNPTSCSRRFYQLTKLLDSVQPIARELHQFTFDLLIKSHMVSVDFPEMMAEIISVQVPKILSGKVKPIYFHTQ

Example entries and their recorded answers appear below.
O=c1cc(C(F)(F)F)c2cc3c(cc2[nH]1)c1c(n3CC(F)(F)F)CCC1 | 15 nM
O=c1cc(C(F)(F)F)c2c3c(ccc2[nH]1)N(Cc1ccsc1)C1CCCC31 (racemic) | > 10000 nM
CCC1CCOc2cc3c(cc21)c(C(F)(F)F)cc(=O)n3C (racemic) | 23 nM
CC(C)C1c2c(ccc3[nH]c(=O)cc(C(F)(F)F)c23)N(CC(F)(F)F)C1C (racemic) | 23 nM
CCN1c2ccc3[nH]c(=O)cc(C(F)(F)F)c3c2C2CCCC21 (racemic) | > 10000 nM

Look up IC50: O=c1cc(C(F)(F)F)c2c3c(ccc2[nH]1)N(CC(F)(F)F)C1CCCC31 (single isomer, unassigned; (-)) [Compound 179]
> 10000 nM

Look up IC50: O=c1cc(C(F)(F)F)c2c3c(ccc2[nH]1)N(CC(F)(F)F)CC3c1ccccc1 (racemic)
34 nM

Look up IC50: CCC1C(C)c2c(ccc3[nH]c(=O)cc(C(F)(F)F)c23)N1CC(F)(F)F (racemic)
> 10000 nM

Look up IC50: O=c1cc(C(F)(F)F)c2c3c(ccc2[nH]1)N(CC(F)(F)F)C1CCCCC31 (racemic)
> 10000 nM

Look up IC50: O=c1cc(C(F)(F)F)c2c(ccc3c2c2ccccc2n3CC(F)(F)F)[nH]1
> 10000 nM

Look up IC50: CCCN1c2ccc3[nH]c(=O)cc(C(F)(F)F)c3c2CCC1(C)C
> 10000 nM

Look up IC50: CC1CCc2cc3[nH]c(=O)cc(C(F)(F)F)c3cc2N1CC(F)(F)F (stereo not drawn)
> 10000 nM
